assay: Therapeutic index, ratio of IC50 for mouse J774 cells to IC50 chloroquine-resistant Plasmodium falciparum W2; type: toxicity; conditions: read-out: Ratio IC50
Endpoint: selectivity ratio

{"Molecular String": "O=C(C[C@H]1NCCC[C@@H]1O)Cn1cnc2ccccc2c1=O", "Endpoint": "selectivity ratio", "Observed Result": 3}

###

tested on: Plasmodium falciparum; assay: Antimalarial activity against Plasmodium falciparum 3D7 after 48 hrs; type: functional, organism-based; conditions: 3D7, 48 h
pIC50: −log10 of the molar value.

{"Molecular String": "CCC[C@@H]1C[C@@H](C(=O)N[C@@H]([C@H]2O[C@H](SC)[C@H](O)[C@@H](O)[C@H]2O)[C@H](C)Cl)N(C)C1", "pIC50": "< 5.00"}

###

assay: Oral bioavailability in rat; type: ADME, organism-based; conditions: in vivo

{"Compound": "O=CN(O)CCCP(=O)(O)O [FOSMIDOMYCIN]", "Unit Abbreviation": "%", "bioavailability": 30}

###

experiment: Therapeutic index, ratio of IC50 for mouse/rat NG108 cells to IC50 chloroquine-resistant Plasmodium falciparum W2; type: toxicity; conditions: read-out: Ratio IC50
Endpoint: selectivity ratio

{"Molecular String": "O=C(C[C@H]1NCCC[C@@H]1O)Cn1cnc2ccccc2c1=O", "Observed Result": 3}

###

test: Inhibition of Plasmodium falciparum NDH2 expressed in HEK293 cells by spectrophotometric analysis; type: cell-based
Reported values of IC50 for individual entries

{"Molecular String": "O=C1C(O)=C([C@H]2CC[C@H](c3ccc(Cl)cc3)CC2)C(=O)c2ccccc21", "Censoring Qualifier": ">", "IC50 / nM": 10000}
{"Molecular String": "Cc1c(-c2ccc(-c3ccc(OC(F)(F)F)cc3)nc2)[nH]c2ccccc2c1=O", "Censoring Qualifier": "=", "IC50 / nM": 14}

###

test system: Plasmodium falciparum; experiment: Antimalarial activity against Plasmodium falciparum W2 after 48 hrs; type: functional, organism-based; conditions: W2, 48 h

{"Molecular String": "CCC[C@@H]1C[C@@H](C(=O)N[C@@H]([C@H]2O[C@H](SC)[C@H](O)[C@@H](O)[C@H]2O)[C@H](C)Cl)N(C)C1", "IC50": "> 10 µM"}
